Assay: A CellTox Green Cytotoxicity Assay to monitor cytotoxicity in HEK293 cells - 16 hour (AID 1224888); further: nearly all actives have a fitted effect of over 35% in size
Conditions: CellTox Green fluorescence; series mostly up to 76.8 µM
Description: National Center for Advancing Translational Sciences [NCATS] NIH Chemical Genomics Center [NCGC] U.S. Environmental Protection Agency [EPA] National Institutes of Environmental Health Sciences [NIEHS] National Toxicology Program [NTP] Cell-based models are critical for drug discovery. […] Viable cells produce no appreciable increases in fluorescence. Therefore, the fluorescence signal produced by the binding interaction with dead cell DNA is proportional to cytotoxicity. […]
Inconclusive results are not listed. Active and inactive are the calls of the source. The call rests on the fitted dose curve; in most records, active means well fitted activation curve with a large enough effect in the repeat runs; inconclusive means weak or mixed curves; inactive means flat fitted curve, though single readings scatter.
Your reply should match one of these outcome classes. active, inactive

INSERT INTO measurements (compound, qualitative_label) VALUES
  ('COC(=O)N(OC)c1ccccc1COc1ccn(-c2ccc(Cl)cc2)n1', 'inactive');

Prompt line: Called result for CCCCON=O
Response line: inactive

Prompt line: # lookup: test call for O=C(N[C@@H]1N=C(c2ccccc2F)c2cccc3c2N(CC3)C1=O)c1cc2ccccc2[nH]1
Response line: active

Prompt line: What outcome does the record of this test show for CCN(CC)CCc1c[nH]c2ccccc12 ?
Response line: inactive

Prompt line: Record lookup: outcome of this test for CSC(=O)c1c(C(F)F)nc(C(F)(F)F)c(C(=O)SC)c1CC(C)C ?
Response line: inactive

Prompt line: Recorded call for COc1ccc2[nH]cc(CCN(C(C)C)C(C)C)c2c1 ?
Response line: inactive

Prompt line: In this assay, the call recorded for Cc1nn(-c2cc(NS(C)(=O)=O)c(Cl)cc2Cl)c(=O)n1C(F)F was what?
Response line: inactive

Prompt line: Can you look up the reported call for Cc1ccn2nc(S(=O)(=O)Nc3c(F)cccc3F)nc2n1 for me?
Response line: inactive

Prompt line: For CC(Cc1ccc2c(c1)OCO2)NO (stereo not given) , which call appears in the assay record?
Response line: inactive

Prompt line: Which outcome did this test record for the compound C[C@]12C/C(=C/O)C(=O)C[C@@H]1CC[C@@H]1[C@@H]2CC[C@@]2(C)[C@H]1CC[C@]2(C)O ?
Response line: inactive

Prompt line: Could you check what this test reported for CC1CN1 (stereo not given) ?
Response line: inactive

Prompt line: Could you kindly confirm the outcome this assay logged for CC(=O)[O-].CC(=O)[O-].O.O.[Zn+2] ?
Response line: inactive

Prompt line: Test call for this compound, please: c1ccc(N=NNc2ccccc2)cc1
Response line: inactive

Prompt line: Test call for this compound, please: COP(=S)(OC)Oc1ccc([N+](=O)[O-])c(C)c1
Response line: inactive

Prompt line: Called result for COc1ccc2c(c1OC)C(=O)O[C@@H]2[C@H]1c2cc3c(cc2CCN1C)OCO3
Response line: inactive

Prompt line: Identify the outcome logged in this assay for the compound shown: c1csc(-c2ccc(-c3cccs3)s2)c1
Response line: inactive

Prompt line: Which outcome did this test record for the compound CNN ?
Response line: inactive

Prompt line: What classification did C=CC(=O)[O][Sn]([CH2]CCC)([CH2]CCC)[CH2]CCC end up with in this test?
Response line: active

Prompt line: What outcome does the record of this test show for CCOC(=O)CCN(SN(C)C(=O)Oc1cccc2c1OC(C)(C)C2)C(C)C ?
Response line: inactive

Prompt line: Field: outcome | Entry: CCC[CH2][Sn]([CH2]CCC)([CH2]CCC)[CH2]CCC
Response line: active

====

Assay: qHTS assay to identify small molecule agonists of the sonic hedgehog signaling (Shh) pathway - cell viability counter screen (AID 1259366); further: nearly all actives have a fitted effect of over 50% in size
Details: NIH/3T3 Gli1-Luc viability, CellTiter-Fluor, 24 h; series mostly up to 92.4 µM
Records with an inconclusive call do not appear. Activity calls are given as the source filed them. Calls come from the whole dose curve; as a rule, active = well fitted cell-killing curve with a large enough effect in the repeat runs; inconclusive = weak or mixed curves, or effect the other way; inactive = flat fitted curve, though single readings scatter.
// classify into true (1) = active, false (0) = inactive

Please review the entries below; each comes with its answer.
INSERT INTO assay_data (compound, qualitative_label) VALUES
  ('O=C(NC(=O)c1ccccc1Cl)Nc1ccc(OC(F)(F)F)cc1', 'false (0)'),
  ('Cc1cc(C2CC2)nc(Nc2ccccc2)n1', 'true (1)'),
  ('CC[C@]1(O)CC[C@H]2[C@@H]3CCC4=CCCC[C@@H]4[C@H]3CC[C@@]21C', 'false (0)'),
  ('CSC(C)(C)/C=N/O', 'false (0)');

Prompt line: Which outcome was assigned to COC(=O)C(C)N(C(=O)c1ccco1)c1c(C)cccc1C (stereo not given) in this test?
Response line: false (0)

====

Experiment: qHTS assay to identify small molecule antagonists of the estrogen receptor alpha (ER-alpha) signaling pathway using the BG1 cell line - cell viability counter screen (AID 743081);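 further: compound given together with 17beta-estradiol as the ER stimulus; on the % scale 0 is the no-effect control and ±100 the full control effect; nearly all actives have a fitted effect of over 45% in size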
Conditions: BG1Luc4E2 viability, CellTiter-Fluor, 22 h; series mostly up to 70.3 µM
Results filed as inconclusive are left out. Active and inactive are the calls of the source. Calls follow the shape of the dose curve; as a rule, active = well fitted cell-killing curve with a large enough effect in the repeat runs; inconclusive = weak or mixed curves, or effect the other way; inactive = flat fitted curve, though single readings scatter.
Answer with one of the outcomes 1 (yes) (active), 0 (no) (inactive)

Some entries whose results are on file:
INSERT INTO measurements (compound, qualitative_label) VALUES
  ('CC(C)C(Br)C(=O)NC(N)=O (configuration not stated)', '0 (no)'),
  ('CCOP(=S)(OCC)Oc1cc(C)nc(N(CC)CC)n1', '0 (no)');

Prompt line: Check the results log: what was the call for CC1CN1 (configuration not stated) ?
Response line: 0 (no)

Prompt line: Hello, I am checking results. What call was entered for O=C(O)[C@H](O)[C@@H](O)C(=O)O ?
Response line: 0 (no)

Prompt line: Dear all, I need the recorded test outcome for CCNc1nc(NC(C)C(C)C)nc(SC)n1 (configuration not stated) , thank you.
Response line: 0 (no)

Prompt line: # fetch the recorded call for CCCCCCC[CH2][Sn]([Cl])([Cl])[CH2]CCCCCCC here
Response line: 0 (no)

====

Biological target: Voltage-gated inwardly rectifying potassium channel KCNH2 (Homo sapiens) (UniProt Q12809)
Sequence (Q12809 whole entry, looked up): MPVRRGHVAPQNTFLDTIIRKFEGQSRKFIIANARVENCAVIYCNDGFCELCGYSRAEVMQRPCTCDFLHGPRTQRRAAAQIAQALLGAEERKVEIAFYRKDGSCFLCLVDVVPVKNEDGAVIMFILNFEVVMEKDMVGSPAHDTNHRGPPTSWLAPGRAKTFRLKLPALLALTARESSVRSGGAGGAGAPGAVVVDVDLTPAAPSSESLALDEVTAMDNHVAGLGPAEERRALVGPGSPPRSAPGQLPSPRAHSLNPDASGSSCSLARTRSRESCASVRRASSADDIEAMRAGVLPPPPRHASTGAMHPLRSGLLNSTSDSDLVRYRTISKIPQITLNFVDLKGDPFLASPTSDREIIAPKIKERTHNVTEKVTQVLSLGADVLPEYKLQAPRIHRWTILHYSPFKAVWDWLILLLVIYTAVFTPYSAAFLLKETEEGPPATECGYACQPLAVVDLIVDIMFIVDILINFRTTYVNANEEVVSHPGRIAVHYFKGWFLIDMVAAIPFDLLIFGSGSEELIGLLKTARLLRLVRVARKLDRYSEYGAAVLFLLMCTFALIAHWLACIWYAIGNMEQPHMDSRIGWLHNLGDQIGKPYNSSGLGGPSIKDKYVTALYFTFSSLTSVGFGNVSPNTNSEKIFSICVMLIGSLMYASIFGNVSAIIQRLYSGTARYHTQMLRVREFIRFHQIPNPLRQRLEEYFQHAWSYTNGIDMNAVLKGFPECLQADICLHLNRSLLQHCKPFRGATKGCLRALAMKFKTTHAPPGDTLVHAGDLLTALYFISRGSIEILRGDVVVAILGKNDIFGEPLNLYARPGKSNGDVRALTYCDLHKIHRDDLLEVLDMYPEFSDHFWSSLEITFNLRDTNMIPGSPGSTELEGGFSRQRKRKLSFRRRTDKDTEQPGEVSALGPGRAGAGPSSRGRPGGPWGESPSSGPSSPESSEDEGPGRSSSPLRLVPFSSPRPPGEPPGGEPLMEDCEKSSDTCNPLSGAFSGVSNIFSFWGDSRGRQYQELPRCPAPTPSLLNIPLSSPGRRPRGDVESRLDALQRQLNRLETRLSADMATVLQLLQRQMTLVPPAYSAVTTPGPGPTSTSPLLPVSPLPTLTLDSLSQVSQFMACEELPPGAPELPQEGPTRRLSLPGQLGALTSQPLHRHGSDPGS
Assay: Human Ether-a-go-go-Related Gene (hERG) channel small molecule antagonists: fluorescence cell-based qHTS assay (AID 1671200); further: nearly all actives have a fitted effect of over 50% in size
Conditions: hERG-U2OS cells, FluxOR thallium flux fluorescence; series mostly up to 76.8 µM
Results filed as inconclusive are left out. Calls of active or inactive are those of the source. Calls follow the shape of the dose curve; as a rule, active = well fitted inhibition curve with a large enough effect in the repeat runs; inconclusive = weak or mixed curves; inactive = flat fitted curve, though single readings scatter.
Hello, when you answer, please use one of the following outcomes: active, inactive

Take a look at these entries with their results.
INSERT INTO results (molecule, qualitative_label) VALUES
  ('N#Cc1sc2c(=O)c3ccccc3c(=O)c=2sc1C#N', 'active'),
  ('COc1ccc2c3c1O[C@H]1[C@H](O)CC[C@H]4[C@@H](C2)N(C)CC[C@@]341', 'inactive');

Prompt line: State the result this test recorded for [O]=[Cr][O][Cr]=[O] .
Response line: inactive

Prompt line: Recorded call for C#CC1(O)CCCCC1 ?
Response line: inactive

Prompt line: Which result was noted for this molecule in the test: CC#C[C@]1(O)CC[C@H]2[C@@H]3C[C@H](C)C4=CC(=O)CC[C@]4(C)[C@H]3CC[C@@]21C
Response line: inactive

====

Assay: qHTS assay for small molecule activators of the heat shock response signaling pathway - cell viability counter screen (AID 743209); further: on the % scale 0 is the no-effect control and ±100 the full control effect; nearly all actives have a fitted effect of over 50% in size
Settings: HSE-bla HeLa viability, CellTiter-Glo luminescence, 5 h; series mostly up to 62.6 µM
Records with an inconclusive call do not appear. Activity calls are given as the source filed them. The call rests on the fitted dose curve; in most records, active means well fitted cell-killing curve with a large enough effect in the repeat runs; inconclusive means weak or mixed curves, or effect the other way; inactive means no such curve, though single readings can be large or run the other way.
readout: outcome

Here's what some known entries look like.
INSERT INTO assay_data (compound, readout, result) VALUES
  ('O=Cc1ccccc1', 'outcome', 'inactive'),
  ('CC(=O)[O-].CC(=O)[O-].CC(=O)[O-].[Cr+3]', 'outcome', 'inactive'),
  ('CC(Cc1ccc2c(c1)OCO2)NO (centres undefined)', 'outcome', 'inactive'),
  ('CC(C)[C@@H](Nc1ccc(C(F)(F)F)cc1Cl)C(=O)OC(C#N)c1cccc(Oc2ccccc2)c1 (some centres undefined)', 'outcome', 'inactive'),
  ('CO/N=C(\C(=O)OC)c1ccccc1CO/N=C(\C)c1cccc(C(F)(F)F)c1', 'outcome', 'inactive');

// below: outcome requested for another compound
Prompt line: Entry CCCC[N+]1(C)CCCC1 (tested in a mixture with another compound) has what outcome?
Response line: inactive

====

Assay: qHTS assay for small molecule disruptors of the mitochondrial membrane potential (AID 720635)
Details: HepG2 mitochondrial membrane potential, Mito-MPS dye ratio; series mostly up to 83.2 µM
Results filed as inconclusive are left out. Active and inactive are the calls of the source. The call rests on the fitted dose curve; in most records, active means well fitted inhibition curve with a large enough effect in the signal ratio in the repeat runs; inconclusive means weak or mixed curves, or effect the other way; inactive means flat fitted curve, though single readings scatter; the % refers to the signal ratio.
Please reply with one of these outcomes: true = active, false = inactive

Take a look at these entries with their results.
INSERT INTO measurements (compound, qualitative_label) VALUES
  ('O=c1[nH]c(Cl)c(Cl)cc1Cl', 'true'),
  ('CCn1cc[n+](C)c1 (tested in a mixture with another compound)', 'false'),
  ('CN1C(=O)[C@@H](NC(=O)c2cc3ccccc3[nH]2)N=C(c2ccccc2)c2ccccc21', 'true'),
  ('O=C(Nc1ccc(F)cc1F)c1cccnc1Oc1cccc(C(F)(F)F)c1', 'true'),
  ('O=C1C[C@@H]2OCC=C3CN4CC[C@]56c7ccccc7N1[C@H]5[C@H]2[C@H]3C[C@H]46', 'false');

Prompt line: Please state the recorded outcome for this compound: Cc1ccc(C)c2ccccc12
Response line: false

Prompt line: Which outcome was assigned to CCCCCCCc1ccc(O)cc1 in this test?
Response line: true

Prompt line: How did this test come out for [F][Sn]([c]1ccccc1)([c]1ccccc1)[c]1ccccc1 ?
Response line: true

Prompt line: For this compound, state the assay outcome: O=C(NC(=O)c1ccccc1Cl)Nc1ccc(OC(F)(F)F)cc1
Response line: false

Prompt line: Please indicate how the test categorized CC(C)NCC(O)c1ccccc1Cl (configuration not stated) .
Response line: false

Prompt line: Kindly provide the recorded test outcome for the following compound: Brc1cccc(-c2ccccc2)c1
Response line: true

Prompt line: Per the records of this test, what outcome belongs to CCNS(=O)(=O)C(F)(F)C(F)(F)C(F)(F)C(F)(F)C(F)(F)C(F)(F)C(F)(F)C(F)(F)F ?
Response line: true

Prompt line: Fill in: this test's call for CC(C)(C)c1ccc(OP(=O)(Oc2ccccc2)Oc2ccccc2)cc1 is ___
Response line: true

Prompt line: Which result was noted for this compound in the test: CCC(C)c1cccc(C(C)CC)c1O (configuration not stated)
Response line: true

Prompt line: So what was the verdict on FC(F)C(F)(F)OCC(Cn1cncn1)c1ccc(Cl)cc1Cl (configuration not stated) in this test?
Response line: true

Prompt line: For this compound, state the assay outcome: S=C=NCCc1ccccc1
Response line: true
